Assay: Pharmacokinetic (toxicokinetic) study, plasma
Format: in vivo, Sprague Dawley rats
Details: female, Sprague Dawley, rat, plasma, iv, 80 mg/kg, Day 3, 80 mg/kg IV, Female, plasma; read-out: Cl (converted)
measurementName: clearance
# output: numeric value plus its unit

Reported clearance of CC(=O)N[C@H]1[C@H](Oc2ccc([N+](=O)[O-])cc2)O[C@H](CO)[C@@H](O)[C@@H]1O : 14 mL/min/kg

----------
Assay: Pharmacokinetic (toxicokinetic) study, plasma
Type: in vivo, Sprague Dawley rats
Details: male, Sprague Dawley, rat, plasma, iv, 80 mg/kg, Day 3, 80 mg/kg IV, Male, plasma
measurementName: AUC(0-t) (ng·h/mL)
Provide the reading as a plain figure in ng·h/mL.

Reported AUC(0-t) of CC(=O)N[C@H]1[C@H](Oc2ccc([N+](=O)[O-])cc2)O[C@H](CO)[C@@H](O)[C@@H]1O [AVR-48] : 91500
